- Test system: P. aeruginosa ATCC 27853
- Construct: ATCC 27853
- assay-remarks: microbe, parasite or virus in culture
- condition-set: Pseudomonas aeruginosa, ATCC27853
property: MIC (µM)
Just the number in µM, nothing appended.

CN[C@@H]1[C@H](O[C@H]2[C@H](O[C@H]3[C@H](O)[C@@H](O)[C@H](N=C(N)N)[C@@H](O)[C@@H]3N=C(N)N)O[C@@H](C)[C@]2(O)C=O)O[C@@H](CO)[C@H](O)[C@H]1O [streptomycin]; 50
CO[C@H]1/C=C/O[C@@]2(C)Oc3c(C)c(O)c4c(O)c(c(/C=N/N5CCN(C)CC5)c(O)c4c3C2=O)NC(=O)/C(C)=C\C=C\[C@H](C)[C@H](O)[C@@H](C)[C@@H](O)[C@@H](C)[C@H](OC(C)=O)[C@@H]1C [rifampicin]; 50

API: the following record is the query input.
get_value(item= CC[C@H]1OC(=O)[C@H](C)[C@@H](O[C@H]2C[C@@](C)(OC)[C@@H](O)[C@H](C)O2)[C@H](C)[C@@H](O[C@@H]2O[C@H](C)C[C@H](N(C)C)[C@H]2O)[C@](C)(O)C[C@@H](C)CN(C)[C@H](C)[C@@H](O)[C@]1(C)O [azithromycin] , readout=MIC) returns 50

Source: paper PMC11178787
